Molecular target: Ba/F3-FGFR3-transfected cells (Homo sapiens, UniProt P22607, cells depend on it, form not given)
Construct: BAF3-FGFR3 (MIN IL3 Alamar Blue- pIC50); other: minus IL3; 24 hours, Alamar Blue
Sequence (P22607 whole entry, change not shown): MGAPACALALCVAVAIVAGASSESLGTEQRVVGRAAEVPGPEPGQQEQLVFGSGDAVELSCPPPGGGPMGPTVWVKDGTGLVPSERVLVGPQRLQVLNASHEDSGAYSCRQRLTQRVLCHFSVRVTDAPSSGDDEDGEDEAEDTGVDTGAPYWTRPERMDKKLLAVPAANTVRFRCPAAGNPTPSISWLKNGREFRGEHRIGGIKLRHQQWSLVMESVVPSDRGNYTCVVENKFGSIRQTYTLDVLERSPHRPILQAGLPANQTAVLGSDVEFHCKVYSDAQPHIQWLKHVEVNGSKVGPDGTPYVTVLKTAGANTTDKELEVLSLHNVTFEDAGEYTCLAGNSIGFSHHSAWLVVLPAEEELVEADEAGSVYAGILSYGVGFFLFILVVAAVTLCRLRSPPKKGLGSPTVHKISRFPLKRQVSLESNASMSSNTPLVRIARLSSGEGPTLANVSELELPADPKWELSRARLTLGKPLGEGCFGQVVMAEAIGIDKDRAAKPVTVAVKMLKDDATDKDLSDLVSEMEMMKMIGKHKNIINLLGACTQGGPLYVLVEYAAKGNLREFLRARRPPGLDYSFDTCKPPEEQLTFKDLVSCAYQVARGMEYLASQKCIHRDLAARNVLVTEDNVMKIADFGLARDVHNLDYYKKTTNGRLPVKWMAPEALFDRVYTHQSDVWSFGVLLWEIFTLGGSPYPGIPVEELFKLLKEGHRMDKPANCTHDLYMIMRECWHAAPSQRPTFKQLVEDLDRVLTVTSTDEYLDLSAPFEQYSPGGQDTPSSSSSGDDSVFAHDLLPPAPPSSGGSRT
Test: Ba/F3-FGFR3 (minus IL3 or plus IL3) cellular proliferation assay, Alamar Blue
Type: cell-based
Conditions: minus IL3; 24 hours, Alamar Blue
Experimental: Ba/F3-FGFR3 (Minus IL3 or Plus IL3) (Cellular Proliferation Assay) In a 384 well plate, 100 nl of compound dilution in DMSO was sprayed before adding 50 μl cell culture medium (phenol red free RPMI-1640, 10% FBS, 2 mM L-Glutamine and 50 μg/ml Gentamycin) containing 20000 cells per well of Ba/F3-FGFR3-transfected cells. Cells were put in an incubator at 37° C. and 5% CO2. […]
# BAF3-FGFR3 (MIN IL3 Alamar Blue- pIC50) per record follows
READOUT_TYPE: BAF3-FGFR3 (MIN IL3 Alamar Blue- pIC50)

compound="COc1cc(OC)cc(N(CCCN2CCCC2CNS(=O)(=O)C(F)(F)F)c2ccc3ncc(-c4cnn(C)c4)cc3c2)c1 (stereo not drawn) [Compound 47]" obs_value=8.46
compound="COc1cc(OC)cc(C(CCNC(C)C)c2ccc3ncc(-c4cnn(C)c4)cc3c2)c1 (stereo not drawn) [Compound 41]" obs_value=6.30
compound="COc1cc(OC)cc(N(Cc2ncc[nH]2)c2ccc3ncc(C4=CCNCC4)cc3c2)c1 [Compound 46]" obs_value=5.68
compound="COc1cc(OC)cc(C(CCO)c2ccc3ncc(-c4cnn(C)c4)cc3c2)c1 (stereo not drawn) [Compound 34]" obs_value=5.16
compound="COc1cc(OC)cc(N(Cc2nccn2S(=O)(=O)N(C)C)c2ccc3ncc(-c4cccnc4)cc3c2)c1 [Compound 60]" obs_value=5.22
compound="COc1cc(OC)cc(N(Cc2ncc[nH]2)c2ccc3ncc(-c4cnn(C)c4)cc3c2)c1 [Compound 18]" obs_value=7.22

###

Target: Ba/F3-KDR-transfected cells (Homo sapiens, UniProt P35968, cells depend on it, form not given)
Construct: BAF3-KDR (MIN IL3 Alamar Blue pIC50); other: minus IL3; 24 hours, Alamar Blue
Sequence (P35968 whole entry, change not shown): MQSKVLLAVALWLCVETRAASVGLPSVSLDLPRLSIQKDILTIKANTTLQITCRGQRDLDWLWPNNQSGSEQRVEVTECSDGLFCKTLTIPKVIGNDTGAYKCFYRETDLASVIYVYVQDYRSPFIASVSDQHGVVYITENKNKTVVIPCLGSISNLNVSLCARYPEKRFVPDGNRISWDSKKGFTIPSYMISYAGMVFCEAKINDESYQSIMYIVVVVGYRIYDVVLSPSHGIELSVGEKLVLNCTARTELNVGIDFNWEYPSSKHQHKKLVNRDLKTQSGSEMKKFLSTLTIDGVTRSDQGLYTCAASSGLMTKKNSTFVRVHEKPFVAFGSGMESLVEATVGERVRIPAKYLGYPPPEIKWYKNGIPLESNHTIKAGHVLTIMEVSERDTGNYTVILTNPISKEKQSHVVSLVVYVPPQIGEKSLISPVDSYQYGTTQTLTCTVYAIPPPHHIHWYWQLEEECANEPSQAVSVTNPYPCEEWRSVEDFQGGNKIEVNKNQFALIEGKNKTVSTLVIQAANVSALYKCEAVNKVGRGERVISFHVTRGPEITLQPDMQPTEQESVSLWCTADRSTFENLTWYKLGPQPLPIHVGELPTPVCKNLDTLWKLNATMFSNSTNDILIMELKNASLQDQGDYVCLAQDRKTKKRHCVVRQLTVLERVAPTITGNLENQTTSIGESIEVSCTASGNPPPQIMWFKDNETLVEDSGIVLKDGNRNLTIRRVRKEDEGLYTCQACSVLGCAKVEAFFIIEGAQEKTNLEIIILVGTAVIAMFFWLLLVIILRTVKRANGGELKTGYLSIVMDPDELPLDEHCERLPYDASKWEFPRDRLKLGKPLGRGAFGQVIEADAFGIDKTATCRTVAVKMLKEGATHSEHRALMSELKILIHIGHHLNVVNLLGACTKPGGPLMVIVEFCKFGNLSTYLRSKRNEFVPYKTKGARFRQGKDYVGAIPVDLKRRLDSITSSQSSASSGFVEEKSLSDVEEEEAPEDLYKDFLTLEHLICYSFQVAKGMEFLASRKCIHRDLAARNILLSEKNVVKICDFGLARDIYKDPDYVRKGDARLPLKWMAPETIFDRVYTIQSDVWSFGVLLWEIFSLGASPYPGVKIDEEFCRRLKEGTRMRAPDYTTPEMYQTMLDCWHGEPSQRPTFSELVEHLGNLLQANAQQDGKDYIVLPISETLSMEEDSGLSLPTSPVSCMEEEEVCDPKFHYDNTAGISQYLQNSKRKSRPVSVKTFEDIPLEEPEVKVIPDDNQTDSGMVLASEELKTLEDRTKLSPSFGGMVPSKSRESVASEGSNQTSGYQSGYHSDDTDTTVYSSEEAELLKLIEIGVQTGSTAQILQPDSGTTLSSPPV
Experiment: Ba/F3-KDR (minus IL3 or plus IL3) cellular proliferation assay, Alamar Blue
Type: cell-based
Settings: minus IL3; 24 hours, Alamar Blue
Procedure: Ba/F3-KDR (Minus IL3 or Plus IL3) (Cellular Proliferation Assay) In a 384 well plate, 100 nl of compound dilution in DMSO was sprayed before adding 50 μl cell culture medium (phenol red free RPMI-1640, 10% FBS, 2 mM L-Glutamine and 50 μg/ml Gentamycin) containing 20000 cells per well of Ba/F3-KDR-transfected cells. Cells were put in an incubator at 37° C. and 5% CO2. […]
# BAF3-KDR (MIN IL3 Alamar Blue pIC50) per record follows
READOUT_TYPE: BAF3-KDR (MIN IL3 Alamar Blue pIC50)

compound="COc1cc(OC)cc(N(CCO)c2ccc3ncc(-c4cnn(C)c4)cc3c2)c1 [Compound 3]" readout_type="BAF3-KDR (MIN IL3 Alamar Blue pIC50)" obs_value=5.65
compound="COc1cc(OC)cc(N(CCCN2CCCC2=O)c2ccc3ncc(-c4cnn(C)c4)cc3c2)c1 [Compound 10]" readout_type="BAF3-KDR (MIN IL3 Alamar Blue pIC50)" obs_value=5.11
compound="COc1cc(OC)cc(N(CCNC(C)C)c2ccc3ncc(-c4ccccc4)cc3c2)c1 [Compound 51]" readout_type="BAF3-KDR (MIN IL3 Alamar Blue pIC50)" obs_value=5.15
